test system: methicillin resistant Staphylococcus aureus (MRSA), un-typed isolate; assay: Broth dilution MIC against MRSA; assay type: cell-based; settings: Staphylococcus aureus, MRSA, 24 h, broth two-fold dilution, 37 °C, 24 h; read-out: Antimicrobial minimal inhibition concentration (MIC), MRSA
Give measured MIC for each item. Keep answers brief.

Query: Any idea what MIC was measured for c1cc2c(cc1[C@H]1OC[C@H]3[C@@H]1CO[C@@H]3c1ccc3c(c1)OCO3)OCO2 [sesamin (3), sesamin] ?
Reply: > 1000 µg/mL

Query: Also, COc1ccc2c(c1)c1ccnc3ccc(=O)n2c31 [10-methoxycanthin-6-one (6), 10-methoxycanthin-6-one] please.
Reply: 3.91 µg/mL

Query: COc1ccc2c(c1OC)c(=O)n(C)c1c3cc4c(cc3ccc21)OCO4 [8-oxochelerythrine (8), 8-oxochelerythrine] ?
Reply: 62.5 µg/mL

Query: Next compound: CCCCCCCCCCCCCC(=O)O [myristic acid (1), myristic acid]
Reply: > 1000 µg/mL

Query: Consider next the compound O=c1ccc2nccc3c4ccccc4n1c23 [canthin-6-one (7), canthin-6-one] in the same way.
Reply: 0.97 µg/mL

====

experiment: MTT cytotoxicity assay, normal cell line; settings: African green monkey
Property Measured: CC50 at 48 h
Please answer in the form of a number followed by its unit of measurement.

Query: State the recorded CC50 at 48 h for this entry: COc1ccc2c(c1OC)C(CC(C)=O)N(C)c1c-2ccc2cc3c(cc12)OCO3 (centres unmarked) [8-acetonyldihydrochelerythrine (4), 8-acetonyldihydrochelerythrine]
Reply: 47.8 µg/mL

Query: And then CC[C@H](/C=C/[C@@H](C)[C@H]1CC[C@H]2[C@@H]3CC=C4C[C@@H](O)CC[C@]4(C)[C@H]3CC[C@]12C)C(C)C [stigmasterol (2), stigmasterol] , what is it?
Reply: 124 µg/mL

====

Would you mind telling me the reported CC50 at 48 h of each entry?
test: in vitro; settings: African green monkey
Please respond with the number in µg/mL and leave the unit unwritten.

Query: Param item = COc1cccc2c1C(=O)c1c(O)c3c(c(O)c1C2=O)C[C@@](O)(C(=O)CO)C[C@@H]3O[C@H]1C[C@H](N)[C@H](O)[C@H](C)O1 [Doxorubicin, reference compound] ; retrieve measured CC50 at 48 h.
Reply: 0.3

Query: Record: c1cc2c(cc1[C@H]1OC[C@H]3[C@@H]1CO[C@@H]3c1ccc3c(c1)OCO3)OCO2 [sesamin (3), sesamin]
Reply: 135

====

assay: MTT cytotoxicity assay, normal cell line; conditions: African green monkey, Vero E6 cells (normal cell line)
Property Measured: CC50 at 48 h (µg/mL)
Field: numeric (µg/mL). Do not append units.

Query: Given the entry COc1ccc2c(c1OC)c(=O)n(C)c1c3cc4c(cc3ccc21)OCO4 , report its measured CC50 at 48 h.
Reply: 135

Query: What do you get for O=c1ccc2nccc3c4ccccc4n1c23 ?
Reply: 41.8

Query: Same for COc1ccc2c(c1)c1ccnc3ccc(=O)n2c31
Reply: 54

Query: Another: CCCCCCCCCCCCCC(=O)O
Reply: 64.9

This collection of values is drawn from paper PMC7412065.
